test: Agilent ZORBAX 300 SB-C18, 150 × 1 mm, 3.5 µm; A: water + 0.01% heptafluorobutyric acid; B: acetonitrile + 0.01% heptafluorobutyric acid; gradient (min/%B) 0/0 100/90; settings: stereoisomer not certain
property measured: LC retention time (min)

Cn1c(N)nc2nc[nH]c2c1=O : 6.36
CCn1cc(-c2ccn[nH]2)c(C)n1 : 8.21
CN1CCC(NCc2cccnc2)CC1 : 7.19
O=C1NC(=O)C(c2ccccc2)(c2ccc(O)cc2)N1 (stereo not drawn) : 9.15
Cc1nn(-c2ccc(NC(=O)c3ccco3)cc2)c(=O)c2ccccc12 : 12

a = CCOc1ccc(C(=O)NNC(=O)COc2ccc(C(C)CC)cc2)cc1 (stereo not drawn)
b = CN(C)c1nc(N)nc(N(C)C)n1
I need your help: which of the pair a , b has higher LC retention time? Provide the label of your selected option as the answer.
a
(a: 15 min, b: 8.03 min)

a = CC(=O)Nc1ccc(CCC(=O)O)cc1
b = c1ccc(-c2nc3ccccc3o2)cc1
I need your help: which of the pair a , b has higher LC retention time? Provide the label of your selected option as the answer.
b
(b: 15.4 min, a: 7.92 min)

1 = CNC1CCCCC1NC (stereo not drawn)
2 = CCOC(=O)c1ccc(N(CC)CC)cc1
From the items above, decide which of 1 and 2 has the lower LC retention time reading. Provide the label of your selected option as the answer.
1
